B1: ZNF449 (parent)
chain: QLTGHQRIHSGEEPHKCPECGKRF

Variants of: B1
experimental-protocol: protein stability index of a GFP-peptide fusion (GPS, HEK-293T) (PSI 1-6); higher = more stable;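 further: lentivirally expressed fusions sorted by FACS into six bins by GFP to DsRed ratio, PSI derived from sequencing read proportions per bin multiplied by bin number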
condition-parameters: c terminus: a fixed tail appended
measurement-kind: protein stability index
Keep the answer to the number alone.

// protein stability index lookup, variant = `QLTGHQRIHQGEEPHKCPECGKRF` , result: 3.91

// protein stability index lookup, variant = `QLTGHQRIHSGEEPHKWPECGKRF` , result: 3.92

// protein stability index lookup, variant = `QLTGHQRIHSGEEPHKCCECGKRF` , result: 3.74

// protein stability index lookup, variant = `QLTGHQRIHSKEEPHKCPECGKRF` , result: 4.09

// protein stability index lookup, variant = `QLTGHQRIHSGEDPHKCPECGKRF` , result: 4.46

// protein stability index lookup, variant = `QLTGHQRIHSGEEPHKCPERGKRF` , result: 5.4

// protein stability index lookup, variant = `QLTGHQRHHSGEEPHKCPECGKRF` , result: 3.17

// protein stability index lookup, variant = `QLTGHQRIHSGEEPHKNPECGKRF` , result: 4.3

// protein stability index lookup, variant = `QLTGHQRIHSGEVPHKCPECGKRF` , result: 3.33

// protein stability index lookup, variant = `QLTGHQRIHSGEEPHACPECGKRF` , result: 4.36

// protein stability index lookup, variant = `QLTEHQRIHSGEEPHKCPECGKRF` , result: 4.38

// protein stability index lookup, variant = `QLTGHQRIHSGEEPHKCPECGKLF` , result: 4.74

// protein stability index lookup, variant = `QLTGHQRIHSGEEPHKCPECRKRF` , result: 4.34

// protein stability index lookup, variant = `QLNGHQRIHSGEEPHKCPECGKRF` , result: 2.66

// protein stability index lookup, variant = `QLTGHQRIHSGEESHKCPECGKRF` , result: 4.88

// protein stability index lookup, variant = `QLTGHQRIHSGEEPHKCYECGKRF` , result: 3.64

// protein stability index lookup, variant = `QLTGHQCIHSGEEPHKCPECGKRF` , result: 5.01
